Target: T1, recombinant human α5β1 integrin (rh-α5β1; R&D Systems, cat. no. 3230-A5) (human, UniProt P08648 42-995; P05556 21-728)
T1 construct: bought recombinant heterodimer
T1 sequence (P08648 42-995 limits assumed, form in doubt, chain 1 of 2): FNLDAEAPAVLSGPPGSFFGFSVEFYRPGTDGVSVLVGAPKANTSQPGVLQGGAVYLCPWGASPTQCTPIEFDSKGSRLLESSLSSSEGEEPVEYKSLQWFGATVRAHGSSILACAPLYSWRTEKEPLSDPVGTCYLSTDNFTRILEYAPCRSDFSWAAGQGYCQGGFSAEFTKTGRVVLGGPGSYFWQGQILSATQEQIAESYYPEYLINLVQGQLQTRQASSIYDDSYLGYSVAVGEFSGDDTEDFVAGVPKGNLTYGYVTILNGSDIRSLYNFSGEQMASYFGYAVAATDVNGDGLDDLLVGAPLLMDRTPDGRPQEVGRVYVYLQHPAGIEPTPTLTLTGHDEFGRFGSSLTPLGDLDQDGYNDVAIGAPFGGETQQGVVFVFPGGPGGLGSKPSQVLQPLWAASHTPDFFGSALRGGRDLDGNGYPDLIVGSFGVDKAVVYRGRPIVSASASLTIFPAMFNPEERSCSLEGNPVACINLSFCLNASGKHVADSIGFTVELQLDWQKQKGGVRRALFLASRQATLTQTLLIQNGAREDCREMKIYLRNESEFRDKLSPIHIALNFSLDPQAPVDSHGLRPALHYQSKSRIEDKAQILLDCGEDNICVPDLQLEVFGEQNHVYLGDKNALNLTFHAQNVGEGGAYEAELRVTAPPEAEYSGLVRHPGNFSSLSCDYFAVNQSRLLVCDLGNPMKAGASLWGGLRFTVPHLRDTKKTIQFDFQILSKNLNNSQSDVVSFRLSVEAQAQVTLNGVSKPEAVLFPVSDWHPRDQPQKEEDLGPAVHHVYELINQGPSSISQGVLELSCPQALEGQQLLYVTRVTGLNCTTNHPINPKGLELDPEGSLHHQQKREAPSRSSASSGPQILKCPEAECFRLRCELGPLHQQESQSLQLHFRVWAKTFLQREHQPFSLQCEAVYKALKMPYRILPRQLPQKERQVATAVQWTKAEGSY
T1 sequence (P05556 21-728 limits assumed, form in doubt, chain 2 of 2): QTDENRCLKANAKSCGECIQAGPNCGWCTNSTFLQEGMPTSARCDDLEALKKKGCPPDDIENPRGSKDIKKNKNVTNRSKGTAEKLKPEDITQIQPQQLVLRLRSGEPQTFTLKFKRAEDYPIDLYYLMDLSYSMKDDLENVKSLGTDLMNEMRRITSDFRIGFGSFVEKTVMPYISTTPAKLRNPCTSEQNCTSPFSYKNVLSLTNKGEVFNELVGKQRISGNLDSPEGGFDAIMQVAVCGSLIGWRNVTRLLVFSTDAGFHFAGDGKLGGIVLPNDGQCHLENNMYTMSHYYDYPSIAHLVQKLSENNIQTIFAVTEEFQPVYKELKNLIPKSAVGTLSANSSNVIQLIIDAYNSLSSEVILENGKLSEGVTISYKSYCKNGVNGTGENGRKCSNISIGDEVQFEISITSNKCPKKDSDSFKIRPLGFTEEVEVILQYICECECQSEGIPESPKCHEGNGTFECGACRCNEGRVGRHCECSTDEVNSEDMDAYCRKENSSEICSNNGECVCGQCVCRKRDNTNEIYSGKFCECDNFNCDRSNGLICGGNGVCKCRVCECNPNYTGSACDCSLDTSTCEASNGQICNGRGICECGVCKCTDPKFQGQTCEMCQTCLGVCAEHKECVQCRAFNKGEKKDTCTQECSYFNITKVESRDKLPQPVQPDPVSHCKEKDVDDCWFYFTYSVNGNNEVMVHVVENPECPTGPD
Assay: ELISA, coated rh-α5β1, supernatant 1:10
Readout name: Absorbance 450 nm

Quick one: Absorbance 450 nm for A2-7F01 (antibody, V domains shown, mouse hybridoma antibody) VH: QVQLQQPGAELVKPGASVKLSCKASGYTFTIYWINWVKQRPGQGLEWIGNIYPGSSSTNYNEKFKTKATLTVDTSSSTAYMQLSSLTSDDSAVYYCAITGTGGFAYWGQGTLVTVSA VL: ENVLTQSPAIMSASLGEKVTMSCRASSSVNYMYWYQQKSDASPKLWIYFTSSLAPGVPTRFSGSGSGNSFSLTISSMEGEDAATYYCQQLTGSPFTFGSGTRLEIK ?
2.03
